Biological target: recombinant human α2C receptor (Homo sapiens (Human), UniProt P18825)
Sequence (P18825 whole entry): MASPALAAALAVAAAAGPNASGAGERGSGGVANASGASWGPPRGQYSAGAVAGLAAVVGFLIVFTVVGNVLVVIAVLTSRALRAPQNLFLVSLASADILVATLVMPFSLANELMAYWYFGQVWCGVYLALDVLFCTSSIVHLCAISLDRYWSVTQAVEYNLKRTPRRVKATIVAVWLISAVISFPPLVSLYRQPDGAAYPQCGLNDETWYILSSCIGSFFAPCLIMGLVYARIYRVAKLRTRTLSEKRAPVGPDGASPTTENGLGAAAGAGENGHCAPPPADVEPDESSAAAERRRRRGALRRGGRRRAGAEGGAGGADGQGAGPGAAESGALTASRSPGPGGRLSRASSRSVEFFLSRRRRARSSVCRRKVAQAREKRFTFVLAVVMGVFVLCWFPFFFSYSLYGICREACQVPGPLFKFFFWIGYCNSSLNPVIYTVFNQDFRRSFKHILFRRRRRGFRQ
Experiment: Antagonism against the adrenoreceptor α2C (luminescence, noradrenaline-stimulated CHO cells)
Details: noradrenaline 20 nM; CHO cell line with Gαqi3 and mtOb
Structures can show the parent of a compound that is named as a salt.
VALUE_TYPE: pIC50
Recall that pIC50 is obtained by taking minus log10 of the concentration measured in molar.

Give the measured pIC50 of O=C(c1cnc(N2CC3(COC3)C2)nc1)N1CCC(N2CCc3ccccc3C2)CC1 [Example 8] .
7.64

---
Give the measured pIC50 of O=C(O)[C@H]1CCCN1c1ncc(C(=O)N2CCC(N3CCc4ccccc4C3)CC2)cn1 [Example 11, Hydrochloride] .
7.02

Give the measured pIC50 of CC1CN(c2ncc(C(=O)N3CCC(N4CCc5ccccc5C4)CC3)cn2)CC(C)O1 (stereo not shown) [Example 13] .
7.33

Give the measured pIC50 of COc1ccc2c(c1)CCN(C1CCN(C(=O)c3cnc(N4CC5(COC5)C4)nc3)CC1)C2 [Example 10] .
7.52

Give the measured pIC50 of CCC(COC)Nc1ncc(C(=O)N2CCC(N3CCc4ccc(OC)cc4C3)CC2)cn1 (racemic) [Example 4] .
8.30

Give the measured pIC50 of CCC(COC)Nc1ncc(C(=O)N2CCC(N3CCc4ccccc4C3)CC2)cn1 (racemic) [Example 6] .
7.51

Give the measured pIC50 of O=C(c1cnc(N2CCS(=O)(=O)CC2)nc1)N1CCC(N2CCc3ccccc3C2)CC1 [Example 12] .
7.59

Give the measured pIC50 of CCC(CO)Nc1ncc(C(=O)N2CCC(N3CCc4ccccc4C3)CC2)cn1 (racemic) [Example 7] .
7.17

Give the measured pIC50 of CC1CN(c2ncc(C(=O)N3CCC(N4CCc5ccccc5C4)CC3)cn2)CC(C)O1 (stereo not shown) [Example 14] .
7.62

Give the measured pIC50 of CCC(COC)Nc1ncc(C(=O)N2CCC(N3CCc4ccc(F)cc4C3)CC2)cn1 (racemic) [Example 2] .
7.59

From: patent US10323020B2
